Reference source: patent US9593084B2

molecular target: epithelial sodium channel (Canis lupus familiaris, UniProt A0A8I3MKE6+A0A8I3Q679+Q95165); construct: endogenous in cells; host or cells: primary canine bronchial epithelial cells cultured at air-liquid interface; experiment: Inhibition of short-circuit current (ISC) in airway epithelial monolayers in Ussing chambers; format: cell-based, canine
observed_property: IC50 (nM)
Dear colleague, please return just the value in nM, with no unit written.

Notebook: NC(=NC(=O)c1nc(Cl)c(N)nc1N)NCCCCc1ccc(C[C@H](N)C(=O)Nc2ccc(CCCNC[C@H](O)[C@@H](O)[C@H](O)[C@H](O)CO)cc2)c2c1CCCC2 [Compound 131] , IC50 read as 6

---

molecular target: epithelial sodium channel (Canis lupus familiaris, UniProt A0A8I3MKE6+A0A8I3Q679+Q95165); construct: endogenous in cells; host or cells: primary canine bronchial epithelial cells cultured at air-liquid interface; assay: Inhibition of short-circuit current (ISC) in airway epithelial monolayers in Ussing chambers; format: cell-based, canine; settings: canine bronchial epithelial cells, short-circuit current; read-out: Potency of Sodium Channel Blockade IC50
Reported IC50 is given for each of the following compounds.
Units required after the number.

CN(C)CCCc1ccc(NC(=O)[C@@H](N)Cc2ccc(CCCCNC(=N)NC(=O)c3nc(Cl)c(N)nc3N)c3ccccc23)cc1 20.7 nM

Notebook: `N=C(NCCCCc1ccc2cc(C[C@H](N)C(=O)O)ccc2c1)NC(=O)c1nc(Cl)c(N)nc1N` , IC50 read as 19.4 nM

Notebook: `CN(C)CCCc1ccc(NC(=O)[C@@H](N)Cc2ccc3cc(CCCCNC(=N)NC(=O)c4nc(Cl)c(N)nc4N)ccc3c2)cc1` , IC50 read as 17.9 nM

Notebook: `CN(C)CCCCCCc1ccc(NC(=O)[C@@H](N)Cc2ccc(CCCCNC(=N)NC(=O)c3nc(Cl)c(N)nc3N)c3ccccc23)cc1` , IC50 read as 50.1 nM

---

target: epithelial sodium channel (Canis lupus familiaris, UniProt A0A8I3MKE6+A0A8I3Q679+Q95165); construct: endogenous in cells; host or cells: primary canine bronchial epithelial cells cultured at air-liquid interface; test: Inhibition of short-circuit current (ISC) in airway epithelial monolayers in Ussing chambers; type: cell-based, canine; conditions: canine bronchial epithelial cells, short-circuit current; read-out: Potency of Sodium Channel Blockade IC50
Classes (IC50): low bracket: < 9 nM; middle bracket: ≥ 9 nM and < 20 nM; high bracket: ≥ 20 nM

N=C(NCCCCc1ccc(C[C@H](N)C(=O)O)c2c1CCCC2)NC(=O)c1nc(Cl)c(N)nc1N high bracket

Now examine the next entry.
Ask | Class for `N=C(NCCCCc1ccc(C[C@H](N)C(=O)O)c2ccccc12)NC(=O)c1nc(Cl)c(N)nc1N` ?
Reply | high bracket

---

Target: epithelial sodium channel (Canis lupus familiaris, UniProt A0A8I3MKE6+A0A8I3Q679+Q95165)
Construct: endogenous in cells; host or cells: primary canine bronchial epithelial cells cultured at air-liquid interface
Sequence (A0A8I3Q679 1-649): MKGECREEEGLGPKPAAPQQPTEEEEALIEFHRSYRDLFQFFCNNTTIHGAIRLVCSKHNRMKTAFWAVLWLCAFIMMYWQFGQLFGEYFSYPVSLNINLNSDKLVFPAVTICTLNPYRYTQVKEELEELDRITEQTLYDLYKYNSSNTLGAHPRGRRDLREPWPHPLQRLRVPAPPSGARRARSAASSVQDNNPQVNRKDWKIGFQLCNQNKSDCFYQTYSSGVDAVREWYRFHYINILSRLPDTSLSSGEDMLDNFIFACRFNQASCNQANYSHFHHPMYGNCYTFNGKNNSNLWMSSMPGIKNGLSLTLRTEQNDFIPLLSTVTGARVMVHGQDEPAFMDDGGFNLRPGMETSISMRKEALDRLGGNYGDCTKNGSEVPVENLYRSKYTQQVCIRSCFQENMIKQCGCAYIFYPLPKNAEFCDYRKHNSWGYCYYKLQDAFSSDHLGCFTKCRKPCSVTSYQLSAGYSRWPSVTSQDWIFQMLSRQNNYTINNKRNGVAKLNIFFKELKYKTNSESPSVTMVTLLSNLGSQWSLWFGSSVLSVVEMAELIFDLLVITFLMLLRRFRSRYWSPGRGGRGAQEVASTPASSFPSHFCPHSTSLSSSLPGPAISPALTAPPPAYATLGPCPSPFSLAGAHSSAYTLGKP
Sequence (Q95165 1-641): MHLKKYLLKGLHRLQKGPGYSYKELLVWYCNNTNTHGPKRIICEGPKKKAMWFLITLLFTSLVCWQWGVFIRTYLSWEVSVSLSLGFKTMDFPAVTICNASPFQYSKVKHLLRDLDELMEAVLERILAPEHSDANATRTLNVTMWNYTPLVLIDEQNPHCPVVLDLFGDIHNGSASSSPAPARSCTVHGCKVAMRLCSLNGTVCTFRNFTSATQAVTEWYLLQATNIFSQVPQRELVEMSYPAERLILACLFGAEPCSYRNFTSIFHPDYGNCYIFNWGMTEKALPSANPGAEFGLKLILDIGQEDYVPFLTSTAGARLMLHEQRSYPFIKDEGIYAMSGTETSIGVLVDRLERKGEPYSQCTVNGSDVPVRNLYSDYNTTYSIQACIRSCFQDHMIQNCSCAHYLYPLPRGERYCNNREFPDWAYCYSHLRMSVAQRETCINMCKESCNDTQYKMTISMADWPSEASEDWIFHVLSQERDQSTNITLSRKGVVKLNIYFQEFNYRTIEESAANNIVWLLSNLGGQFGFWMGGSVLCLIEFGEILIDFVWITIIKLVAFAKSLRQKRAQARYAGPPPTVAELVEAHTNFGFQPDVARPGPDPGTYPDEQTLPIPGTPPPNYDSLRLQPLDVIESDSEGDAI
Sequence (A0A8I3MKE6 1-646): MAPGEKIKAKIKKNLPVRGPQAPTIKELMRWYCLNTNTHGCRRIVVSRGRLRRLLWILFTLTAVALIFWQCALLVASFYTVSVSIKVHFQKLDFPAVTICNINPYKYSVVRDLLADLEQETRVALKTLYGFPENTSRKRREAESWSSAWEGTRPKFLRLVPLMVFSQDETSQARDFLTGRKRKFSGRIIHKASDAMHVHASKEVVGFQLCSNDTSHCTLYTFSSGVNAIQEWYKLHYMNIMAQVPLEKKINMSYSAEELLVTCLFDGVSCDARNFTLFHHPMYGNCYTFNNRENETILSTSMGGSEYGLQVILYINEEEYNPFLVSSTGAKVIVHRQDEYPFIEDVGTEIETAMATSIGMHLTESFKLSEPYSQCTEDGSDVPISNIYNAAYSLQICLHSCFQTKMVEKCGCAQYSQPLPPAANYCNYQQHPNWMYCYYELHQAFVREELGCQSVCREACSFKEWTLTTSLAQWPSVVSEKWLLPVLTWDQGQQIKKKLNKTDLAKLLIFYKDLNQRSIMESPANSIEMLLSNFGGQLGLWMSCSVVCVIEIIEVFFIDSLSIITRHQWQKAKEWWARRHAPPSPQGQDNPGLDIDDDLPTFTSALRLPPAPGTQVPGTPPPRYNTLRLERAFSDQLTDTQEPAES
Test: Inhibition of short-circuit current (ISC) in airway epithelial monolayers in Ussing chambers
Assay type: cell-based, canine
Conditions: canine bronchial epithelial cells, short-circuit current; read-out: Potency of Sodium Channel Blockade IC50
observed_property: IC50 (nM)
Dear colleague, please return just the value in nM, with no unit written.

CCCCCCN(CCCCCCc1ccc(NC(=O)[C@@H](N)Cc2ccc(CCCCNC(=N)NC(=O)c3nc(Cl)c(N)nc3N)c3ccccc23)cc1)C[C@H](O)[C@@H](O)[C@H](O)[C@H](O)CO 10.6
CCCCCCN(CCCc1ccc(NC(=O)[C@@H](N)Cc2ccc(CCCCNC(=N)NC(=O)c3nc(Cl)c(N)nc3N)c3c2CCCC3)cc1)C[C@H](O)[C@@H](O)[C@H](O)[C@H](O)CO 2.3
N=C(NCCCCc1ccc2cc(C[C@H](N)C(=O)Nc3ccc(CCCNC[C@H](O)[C@@H](O)[C@H](O)[C@H](O)CO)cc3)ccc2c1)NC(=O)c1nc(Cl)c(N)nc1N 7.6
N=C(NCCCCc1ccc(C[C@H](N)C(=O)Nc2ccc(CCCN(C[C@H](O)[C@@H](O)[C@H](O)[C@H](O)CO)C[C@H](O)[C@@H](O)[C@H](O)[C@H](O)CO)cc2)c2ccccc12)NC(=O)c1nc(Cl)c(N)nc1N 21.8
N=C(NCCCCc1ccc2cc(C[C@H](N)C(=O)Nc3ccc(CCCN(C[C@H](O)[C@@H](O)[C@H](O)[C@H](O)CO)C[C@H](O)[C@@H](O)[C@H](O)[C@H](O)CO)cc3)ccc2c1)NC(=O)c1nc(Cl)c(N)nc1N 21.2
N=C(NCCCCc1ccc(C[C@H](N)C(=O)Nc2ccc(CCCCCCNC[C@H](O)[C@@H](O)[C@H](O)[C@H](O)CO)cc2)c2ccccc12)NC(=O)c1nc(Cl)c(N)nc1N 15.5

Notebook: `CCCCCCN(CCCc1ccc(NC(=O)[C@@H](N)Cc2ccc(CCCCNC(=N)NC(=O)c3nc(Cl)c(N)nc3N)c3ccccc23)cc1)C[C@H](O)[C@@H](O)[C@H](O)[C@H](O)CO` , IC50 read as 7.4

Notebook: `N=C(NCCCCc1ccc(C[C@H](N)C(=O)Nc2ccc(CCCNC[C@H](O)[C@@H](O)[C@H](O)[C@H](O)CO)cc2)c2ccccc12)NC(=O)c1nc(Cl)c(N)nc1N` , IC50 read as 25.4

Notebook: `N=C(NCCCCc1ccc(C[C@H](N)C(=O)Nc2ccc(CCCN(C[C@H](O)[C@@H](O)[C@H](O)[C@H](O)CO)C[C@H](O)[C@@H](O)[C@H](O)[C@H](O)CO)cc2)c2c1CCCC2)NC(=O)c1nc(Cl)c(N)nc1N` , IC50 read as 8.6

Notebook: `CN(C)CCCc1ccc(NC(=O)[C@@H](N)Cc2ccc(CCCCNC(=N)NC(=O)c3nc(Cl)c(N)nc3N)c3c2CCCC3)cc1` , IC50 read as 5.2

Notebook: `N=C(NCCCCc1ccc(C[C@H](N)C(=O)Nc2ccc(CCCCCCN(C[C@H](O)[C@@H](O)[C@H](O)[C@H](O)CO)C[C@H](O)[C@@H](O)[C@H](O)[C@H](O)CO)cc2)c2ccccc12)NC(=O)c1nc(Cl)c(N)nc1N` , IC50 read as 47
